target: hMC4-R (Homo sapiens); construct: expressed in transfected cells; host or cells: HEK293 cells; experiment: Membrane binding assay, fluorescence labeled NDP-alpha-MSH competition (fluorescence polarization); details: HEK293 cell membrane preparations
Value Type: IC50 (µM)

* CC(C)(C)NC(=O)C1(C2CCCCC2)CCN(C[C@@H](Cc2ccc(Cl)cc2)NC(=O)[C@H]2Cc3ccccc3CN2)CC1.Cl | 0.72

a. CC(C)(C)NC(=O)C1(C2CCCCC2)CCN(C[C@H](Cc2ccc(Cl)cc2)NC(=O)[C@H]2Cc3ccccc3CN2)CC1.Cl
b. CC(C)(C)NC(=O)C1(C2CCCCC2)CCN(C[C@H](Cc2ccc(Cl)cc2)NC(=O)c2cc(=O)c3ccccc3o2)CC1
Q: Of a and b , which one carries the higher reported IC50? Record your answer as the label of the chosen record.
Ans: b

---

Target: hMC4-R (Homo sapiens, UniProt P32245)
Construct: expressed in transfected cells; host or cells: HEK293 cells
Sequence (P32245 whole entry): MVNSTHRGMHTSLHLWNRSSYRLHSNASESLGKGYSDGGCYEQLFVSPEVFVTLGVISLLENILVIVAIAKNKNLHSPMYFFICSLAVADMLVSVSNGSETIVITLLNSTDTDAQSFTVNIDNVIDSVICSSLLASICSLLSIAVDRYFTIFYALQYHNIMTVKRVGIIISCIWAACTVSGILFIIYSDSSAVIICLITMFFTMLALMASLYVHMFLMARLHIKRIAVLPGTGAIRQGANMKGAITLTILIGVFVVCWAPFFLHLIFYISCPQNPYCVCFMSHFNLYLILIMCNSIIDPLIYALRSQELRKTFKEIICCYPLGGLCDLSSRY
Experiment: Functional cellular cAMP assay in HEK293 cells (fluorescence polarization)
Type: cell-based
Settings: cAMP compared to stimulation with NDP-alpha-MSH
Description: A functional cellular assay, based on competition between unlabeled cAMP and a fixed quantity of fluorescence labeled cAMP for a limited number of binding sites on a cAMP specific antibody, is used to discriminate melanocortin receptor agonists from antagonists by fluorescence polarization. […]
Value Type: % activation functional assay

* CC(C)(C)NC(=O)C1(C2CCCCC2)CCN(C[C@@H](Cc2ccc(Cl)cc2)NC(=O)[C@H]2Cc3ccccc3CN2)CC1.Cl [Example 2] | 80%
* CC(C)(C)NC(=O)C1(C2CCCCC2)CCN(CC[C@H](Cc2ccc(Cl)cc2)NC(=O)c2cc(=O)c3ccccc3o2)CC1 [Example 31] | no activation
* CC(C)(C)NC(=O)C1(C2CCCCC2)CCN(CC[C@H](Cc2ccc(Cl)cc2)NC(=O)[C@H]2Cc3ccccc3CN2)CC1.Cl [Example 6] | no activation

---

molecular target: hMC4-R (Homo sapiens, UniProt P32245); construct: expressed in transfected cells; host or cells: HEK293 cells; test: Membrane binding assay, fluorescence labeled NDP-alpha-MSH competition (fluorescence polarization); details: HEK293 cell membrane preparations
Value Type: IC50 (µM)

Illustrative cases are given below, each with its answer.
• CC(C)(C)NC(=O)C1(C2CCCCC2)CCN(CC[C@@H](Cc2ccc(Cl)cc2)NC(=O)[C@H]2Cc3ccccc3CN2)CC1.Cl [Example 5] = 2.5
• CC(C)(C)NC(=O)C1(C2CCCCC2)CCN(C[C@@H](Cc2ccc(Cl)cc2)NC(=O)[C@@H]2Cc3ccccc3CN2)CC1.Cl [Example 3] = 0.42
• CC(C)(C)NC(=O)C1(C2CCCCC2)CCN(CC[C@H](Cc2ccc(Cl)cc2)NC(=O)c2cc(=O)c3ccccc3o2)CC1 [Example 31] = 0.061
• CC(C)(C)NC(=O)C1(C2CCCCC2)CCN(C[C@@H](Cc2ccc(Cl)cc2)NC(=O)c2cc(=O)c3ccccc3o2)CC1 [Example 29] = 2.6

a. CC(C)(C)NC(=O)C1(C2CCCCC2)CCN(CC[C@H](Cc2ccc(Cl)cc2)NC(=O)[C@H]2Cc3ccccc3CN2)CC1.Cl [Example 6]
b. CC(C)(C)NC(=O)C1(C2CCCCC2)CCN(CC[C@@H](Cc2ccc(Cl)cc2)NC(=O)c2cc(=O)c3ccccc3o2)CC1 [Example 30]
Q: Of a and b , which one carries the higher reported IC50? Record your answer as the label of the chosen record.
Ans: b
(b: 2.1 µM, a: 1 µM)

---

target: hMC4-R (Homo sapiens); construct: expressed in transfected cells; host or cells: HEK293 cells; assay: Functional cellular cAMP assay in HEK293 cells (fluorescence polarization); format: cell-based; conditions: cAMP compared to stimulation with NDP-alpha-MSH
Value Type: % activation functional assay

Illustrative cases are given below, each with its answer.
- CC(C)(C)NC(=O)C1(C2CCCCC2)CCN(C[C@@H](Cc2ccc(Cl)cc2)NC(=O)c2cc(=O)c3ccccc3o2)CC1: no activation
- CC(C)(C)NC(=O)C1(C2CCCCC2)CCN(C[C@H](Cc2ccc(Cl)cc2)NC(=O)c2cc(=O)c3ccccc3o2)CC1: no activation
- CC(C)(C)NC(=O)C1(C2CCCCC2)CCN(C[C@@H](Cc2ccc(Cl)cc2)NC(=O)[C@@H]2Cc3ccccc3CN2)CC1.Cl: no activation
- CC(C)(C)NC(=O)C1(C2CCCCC2)CCN(CC[C@@H](Cc2ccc(Cl)cc2)NC(=O)c2cc(=O)c3ccccc3o2)CC1: no activation
- CC(C)(C)NC(=O)C1(C2CCCCC2)CCN(C[C@H](Cc2ccc(Cl)cc2)NC(=O)[C@H]2Cc3ccccc3CN2)CC1.Cl: no activation

Next molecule, please.
Q: Give me measured % activation functional assay, please, for this molecule: CC(C)(C)NC(=O)C1(C2CCCCC2)CCN(CC[C@@H](Cc2ccc(Cl)cc2)NC(=O)[C@H]2Cc3ccccc3CN2)CC1.Cl
Ans: 52%

These measurements were taken from patent US20070037823A1.
